// provenance: paper PMC3484393

# system under test: Srs2ΔC (Srs2 1-898) (Saccharomyces cerevisiae? (budding …, UniProt P12954 1-898))
# Sequence (P12954 1-898, stated change not applied): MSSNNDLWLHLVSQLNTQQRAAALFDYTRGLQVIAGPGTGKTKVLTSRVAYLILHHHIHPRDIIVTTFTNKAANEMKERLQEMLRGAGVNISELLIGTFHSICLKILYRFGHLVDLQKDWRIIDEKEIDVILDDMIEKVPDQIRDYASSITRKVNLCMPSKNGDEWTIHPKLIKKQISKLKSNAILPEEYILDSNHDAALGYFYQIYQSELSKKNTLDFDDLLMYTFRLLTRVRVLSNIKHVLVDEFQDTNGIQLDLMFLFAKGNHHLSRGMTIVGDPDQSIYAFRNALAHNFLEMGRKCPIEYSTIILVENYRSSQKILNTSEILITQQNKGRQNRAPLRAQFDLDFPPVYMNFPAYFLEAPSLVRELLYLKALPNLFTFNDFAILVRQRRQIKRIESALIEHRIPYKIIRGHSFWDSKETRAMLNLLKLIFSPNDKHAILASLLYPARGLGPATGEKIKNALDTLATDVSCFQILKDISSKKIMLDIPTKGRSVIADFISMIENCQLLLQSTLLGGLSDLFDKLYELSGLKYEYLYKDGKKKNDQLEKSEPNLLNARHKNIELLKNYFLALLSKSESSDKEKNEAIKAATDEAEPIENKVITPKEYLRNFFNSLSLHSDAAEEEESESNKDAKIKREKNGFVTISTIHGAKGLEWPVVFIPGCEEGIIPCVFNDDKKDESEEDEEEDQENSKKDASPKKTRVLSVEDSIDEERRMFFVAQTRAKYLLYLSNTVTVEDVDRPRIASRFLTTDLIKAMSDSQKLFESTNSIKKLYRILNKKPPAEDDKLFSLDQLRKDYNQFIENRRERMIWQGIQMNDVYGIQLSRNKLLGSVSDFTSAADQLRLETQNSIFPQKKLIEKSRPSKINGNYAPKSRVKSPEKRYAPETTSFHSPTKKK
# assay text: competition; FITC-ssDNA competitor against Cy5-ssDNA with 150 nM Srs2ΔC; value derived from text: 3 times higher than the 5 nM of 3' overhang; 30 mM Tris pH 7.5, 1 mM DTT, 0.1 mg/ml BSA, 100 mM KCl, 3 nM DNA, 30 °C 10 min; 7% native PAGE in 0.5x TBE
# run conditions: protein: recombinant; tags: His9 (pull-down section says His6); label: fluorescein or Cy5, end label; single strand
readout type: IC50

binder | readout type | result
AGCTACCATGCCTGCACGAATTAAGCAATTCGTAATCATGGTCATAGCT (ssDNA) [ssDNA] | IC50 | ~15 nM
